Listing of recorded pKd by entry.
Biological target: FimH-CRD (Escherichia coli, UniProt P08191)
Construct: The first 177 amino acids of the FimH protein; thrombin tag (printed as 'fusion protein with thrombin') (cleaved yes); made in house; host or cells: bacteria (pET21b plasmid)
Sequence (P08191 22-177): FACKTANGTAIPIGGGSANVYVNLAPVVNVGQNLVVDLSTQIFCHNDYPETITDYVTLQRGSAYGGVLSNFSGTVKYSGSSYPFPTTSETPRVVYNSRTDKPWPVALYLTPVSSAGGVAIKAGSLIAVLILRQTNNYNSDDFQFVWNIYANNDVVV
Assay: Competitive binding assay by fluorescence polarization, assay 2 (compounds prepared by robotics, plates frozen and thawed)
// pKd here means minus log10 of the molar concentration (mol/L)

molecule | targetOrTestSystem | measuredValue
OC[C@H]1OC(c2ccc(OCc3cccc4nonc34)cc2)[C@@H](O)[C@@H](O)[C@@H]1O (stereo partly shown) | FimH-CRD (Escherichia coli, UniProt P08191) | 7.52

Reported pKd for FimH-CRD (Escherichia coli, UniProt P08191), given CNC(=O)c1ccc(Oc2cc([C@H]3O[C@H](CO)[C@@H](O)[C@H](O)[C@@H]3O)ccc2F)cc1 ?
7.93

Next entry: OC[C@H]1O[C@H](c2cccc(CCCc3cc(Cl)cc(Cl)c3)c2)[C@@H](O)[C@@H](O)[C@@H]1O
7.56

###

Target: FimH-CRD (Escherichia coli)
Construct: The first 177 amino acids of the FimH protein; thrombin tag (printed as 'fusion protein with thrombin') (cleaved yes); made in house; host or cells: bacteria (pET21b plasmid)
Assay: Competitive binding assay by fluorescence polarization, assay 1 (compounds prepared by manual serial dilution)
Method: The first 177 amino acids of the FimH protein were expressed as a fusion protein with thrombin in a pET21b plasmid in bacteria. This FimH protein sequence contains the carbohydrate recognition domain (CRD) and shall be termed FimH-CRD. […] A competitive binding assay by fluorescence polarization was performed using 5 nM of the Alexa 647 mannoside probe and 60 nM of the FimH-CRD. […]
Please respond with condition met when measured Kd is strictly beneath 0.01 µM, and with condition not met in all other cases.

compound | targetOrTestSystem | classLabel
Cc1nnc(-c2ccc(-c3cccc([C@H]4O[C@H](CO)[C@@H](O)[C@H](O)[C@@H]4O)c3)cc2)o1 [Compound 48] | FimH-CRD (Escherichia coli) | condition met

Just wondering, is Kd of OCc1ccccc1-c1cccc([C@H]2O[C@H](CO)[C@@H](O)[C@H](O)[C@@H]2O)c1 [Compound 13] below 0.01 µM?
condition not met

Next entry: OC[C@H]1O[C@H](O[C@@H]2[C@H](O)[C@@H](c3cccc(Oc4ccccc4)c3)O[C@H](CO)[C@H]2O)[C@@H](O)[C@@H](O)[C@@H]1O [Compound 271]
condition not met

Next entry: COC(=O)Cc1ccccc1-c1cccc([C@H]2O[C@H](CO)[C@@H](O)[C@H](O)[C@@H]2O)c1 [Compound 66]
condition not met

Next entry: Cc1ccc(-c2cccc([C@H]3O[C@H](CO)[C@@H](O)[C@H](O)[C@@H]3O)c2)cc1 [Compound 6]
condition not met

Next entry: OC[C@H]1O[C@H](c2cccc(Oc3ccccc3)c2)[C@@H](O)[C@@H](O)[C@@H]1O [Compound 59]
condition met

Next entry: C=CC[C@H]1O[C@H](CO)[C@@H](O)[C@H](O[C@H]2O[C@H](CO)[C@@H](O)[C@H](O)[C@@H]2O)[C@@H]1O [Compound 281]
condition not met

###

Molecular target: FimH-CRD (Escherichia coli, UniProt P08191)
Construct: The first 177 amino acids of the FimH protein; thrombin tag (printed as 'fusion protein with thrombin') (cleaved yes); made in house; host or cells: bacteria (pET21b plasmid)
Experiment: Competitive binding assay by fluorescence polarization, assay 1 (compounds prepared by manual serial dilution)
Please respond with criterion met when measured Kd is strictly beneath 20 nM, and with criterion not met in all other cases.

Reference set, count: 3
molecule | classLabel
COC(=O)Cc1cccc(Oc2ccc([C@H]3O[C@H](CO)[C@@H](O)[C@H](O)[C@@H]3O)cc2)c1 [Compound 293] | criterion met
CN(C)Cc1ccccc1-c1cccc([C@H]2O[C@H](CO)[C@@H](O)[C@H](O)[C@@H]2O)c1 [Compound 14] | criterion not met
COc1cccc([C@H]2O[C@H](CO)[C@@H](O)[C@H](O)[C@@H]2O)c1 [Compound 44] | criterion not met

Just wondering, is Kd of COC(=O)c1cc(Oc2cccc([C@H]3O[C@H](CO)[C@@H](O)[C@H](O)[C@@H]3O)c2)cc(C(=O)OC)c1 [Compound 51] below 20 nM?
criterion met

Next entry: OC[C@H]1O[C@H](c2ccc(O)cc2)[C@@H](O)[C@@H](O)[C@@H]1O [Compound 46]
criterion not met

Next entry: OC[C@H]1O[C@H](c2cccc(-c3cccnc3)c2)[C@@H](O)[C@@H](O)[C@@H]1O [Compound 9]
criterion not met

Next entry: CNC(=O)c1cccc(Oc2ccc([C@H]3O[C@H](CO)[C@@H](O)[C@H](O[C@H]4O[C@H](CO)[C@@H](O)[C@H](O)[C@@H]4O)[C@@H]3O)cc2)c1 [Compound 268]
criterion met
